biological target: soluble guanylate cyclase (human GUCYA3 and GUCYB3) overexpressed in CHO cells (Homo sapiens (Human), UniProt Q02108+Q02153); assay: CHO cellular assay (cGMP production, Cisbio cGMP HTRF kit); type: cell-based; settings: CHO GUCY clone 8E10, cGMP production, assay buffer with 1 mM IBMX and 20 uM ODQ, 1 h room temperature; minimum quantification limit 0.5 nM (listed 0.5 nM means ≤0.5 nM); read-out: EC50
Sequence (Q02108 whole entry partner): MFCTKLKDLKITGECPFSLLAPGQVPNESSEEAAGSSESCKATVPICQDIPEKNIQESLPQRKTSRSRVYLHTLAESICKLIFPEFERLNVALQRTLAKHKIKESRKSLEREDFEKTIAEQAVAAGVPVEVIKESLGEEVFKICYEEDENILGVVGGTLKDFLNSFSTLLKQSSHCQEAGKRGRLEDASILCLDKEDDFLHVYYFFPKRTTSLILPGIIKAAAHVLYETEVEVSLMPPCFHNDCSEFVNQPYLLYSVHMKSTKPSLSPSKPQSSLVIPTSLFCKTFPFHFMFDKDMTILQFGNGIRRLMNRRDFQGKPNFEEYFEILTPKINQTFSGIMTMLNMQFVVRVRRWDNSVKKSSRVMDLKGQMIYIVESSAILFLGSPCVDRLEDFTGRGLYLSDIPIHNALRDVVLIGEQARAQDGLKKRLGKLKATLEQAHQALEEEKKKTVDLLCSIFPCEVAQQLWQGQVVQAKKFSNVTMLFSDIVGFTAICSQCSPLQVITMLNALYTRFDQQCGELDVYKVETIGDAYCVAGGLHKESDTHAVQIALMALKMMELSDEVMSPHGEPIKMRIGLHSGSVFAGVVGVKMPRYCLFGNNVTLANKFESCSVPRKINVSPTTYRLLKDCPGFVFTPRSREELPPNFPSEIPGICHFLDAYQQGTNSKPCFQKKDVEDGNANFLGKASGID
Sequence (Q02153 whole entry): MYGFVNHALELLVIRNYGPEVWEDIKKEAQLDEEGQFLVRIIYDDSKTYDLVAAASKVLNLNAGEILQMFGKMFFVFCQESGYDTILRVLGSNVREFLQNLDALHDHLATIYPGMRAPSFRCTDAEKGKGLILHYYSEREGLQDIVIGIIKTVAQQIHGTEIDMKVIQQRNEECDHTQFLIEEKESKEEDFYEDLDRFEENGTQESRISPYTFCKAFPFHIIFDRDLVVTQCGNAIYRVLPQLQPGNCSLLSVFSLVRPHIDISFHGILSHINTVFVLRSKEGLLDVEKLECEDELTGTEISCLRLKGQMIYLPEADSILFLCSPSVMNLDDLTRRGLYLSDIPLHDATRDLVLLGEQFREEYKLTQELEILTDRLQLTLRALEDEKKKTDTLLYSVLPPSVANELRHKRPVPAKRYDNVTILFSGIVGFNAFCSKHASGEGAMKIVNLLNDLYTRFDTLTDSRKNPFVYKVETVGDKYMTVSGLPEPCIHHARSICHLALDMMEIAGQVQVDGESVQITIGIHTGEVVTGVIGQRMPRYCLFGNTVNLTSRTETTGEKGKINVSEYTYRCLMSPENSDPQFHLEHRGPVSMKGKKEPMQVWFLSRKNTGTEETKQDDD
Task for the reader: assign each of the following compounds its reported EC50.
Give just the numeric value; nM need not be written.

q: Output EC50 of CCc1c(C(=O)O)cnn1-c1cccc(-c2cccc3c2C(Nc2ccc(C4CCN(C(=O)C5CC5)CC4)cc2C)CC3)n1 (single isomer, unassigned; (-)) [Example 10b]
a: 49

q: Output EC50 of Cc1cc2c(c(-c3cccc(-n4ncc(C(=O)O)c4C(F)(F)F)n3)c1)C(Nc1ccc(C3CCN(C(=O)C4CC4)CC3)cc1C)CC2 (single isomer, unassigned; (-)) [43 (−)]
a: 23
